Target: human prostaglandin E2 (subtype EP2) receptor (Homo sapiens, UniProt P43116)
Sequence (P43116 whole entry): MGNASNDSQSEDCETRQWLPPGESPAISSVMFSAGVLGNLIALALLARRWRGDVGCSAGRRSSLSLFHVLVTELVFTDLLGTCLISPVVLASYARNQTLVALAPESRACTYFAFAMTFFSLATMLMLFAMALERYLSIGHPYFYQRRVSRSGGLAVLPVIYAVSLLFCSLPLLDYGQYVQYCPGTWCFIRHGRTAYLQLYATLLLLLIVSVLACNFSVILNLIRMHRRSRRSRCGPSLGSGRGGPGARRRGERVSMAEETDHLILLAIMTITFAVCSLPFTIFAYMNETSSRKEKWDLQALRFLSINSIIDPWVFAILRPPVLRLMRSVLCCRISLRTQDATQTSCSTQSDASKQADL
Assay: cAMP agonism assay (HTRF cAMP detection)
Settings: cAMP agonism test; read-out: Agonism [ED50, μm]
quantity: EC50

- compound: "O=C(O)Cn1c2ccccc2c2ccc(OCCCCCOc3ccccc3)cc21"
  EC50: "> 19 µM"
- compound: "CCOC(=O)Cn1c2ccccc2c2ccc(OCCCCOc3cccc(C(=O)OC)c3)cc21"
  EC50: "6.3 µM"
- compound: "CC(=O)Nc1cccc(OCCCCOc2ccc3c(c2)C(CC(=O)O)c2ccccc2-3)c1 (racemic)"
  EC50: "6.3 µM"
- compound: "O=C(O)Cn1c2ccccc2c2ccc(OCCCCOc3ccc(-n4cccc4)cc3)cc21"
  EC50: "> 19 µM"
- compound: "CC(=O)c1cccc(OCCCCOc2ccc3c4ccccc4n(CC(=O)O)c3c2)c1"
  EC50: "> 19 µM"
- compound: "O=C(O)CC1c2ccccc2-c2ccc(OCCCCOc3cccc(O)c3)cc21 (racemic)"
  EC50: "> 19 µM"
- compound: "O=C(O)Cn1c2ccccc2c2ccc(OCCCOc3ccccc3)cc21"
  EC50: "> 19 µM"
- compound: "O=C(O)CCn1c2ccccc2c2ccc(OCCCCOc3ccc4c(c3)CCC(=O)N4)cc21"
  EC50: "> 19 µM"

Proceeding to the next compound to report its EC50.
Prompt line: For the compound CC(C)Oc1ccc2c(=O)c3cc(C(=O)O)ccc3oc2c1 [AH6809, reference compound] , what EC50 is on record?
Response line: > 19 µM

src = patent US20070197524A1
